Biological target: human Edg-1 receptor (Homo sapiens, UniProt P21453)
Construct: expressed in transfected cells; membrane preparation
Sequence (P21453 whole entry): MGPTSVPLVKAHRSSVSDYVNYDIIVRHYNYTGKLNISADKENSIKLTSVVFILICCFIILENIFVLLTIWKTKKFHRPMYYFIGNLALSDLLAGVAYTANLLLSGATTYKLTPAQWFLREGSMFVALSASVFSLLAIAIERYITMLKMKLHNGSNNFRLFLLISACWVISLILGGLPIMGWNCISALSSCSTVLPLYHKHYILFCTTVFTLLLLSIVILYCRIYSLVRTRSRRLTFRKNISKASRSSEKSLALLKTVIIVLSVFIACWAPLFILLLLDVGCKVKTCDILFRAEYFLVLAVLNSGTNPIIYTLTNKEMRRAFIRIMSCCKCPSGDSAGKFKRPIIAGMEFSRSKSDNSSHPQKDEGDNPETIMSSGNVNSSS
Assay: GTP-γ-S assay using human Edg-1 receptors (scintillation proximity assay, membrane preparation from CHO Flp-In cell line)
Assay type: biochemical
Settings: example compound at 10 μM; relative to 10 μM S1P; GTP-γ-S SPA, human Edg-1 membranes
QUANTITY_MEASURED: % Activation (Edg-1 receptor activation in percent of the activation by 10 μM S1P) (%)
Lab book: enter the figure in %, no units written.

CCCOc1nc(Cc2ccc(Cl)cc2)nc2oc(-c3cc(C)c(OCC(=O)OCC(=O)O)c(C)c3)nc12 ... 110
CCCCOc1nc(Cc2ccc(Cl)cc2)nc2oc(-c3cccc(C)c3)nc12 ... 31
CCCOc1nc(CN2CCCOCC2)nc2oc(-c3cc(F)cc(F)c3)nc12 ... 123
CCCOc1nc(Cc2ccc(Cl)cc2)nc2oc(-c3cc(C)c(OCC(=O)N4CC[C@@H](O)C4)c(C)c3)nc12 ... 125
CCCOc1nc(CN2CCOC[C@@H]2CO)nc2oc(-c3cccc(F)c3)nc12 ... 97
CCCOc1nc(Cc2ccc(C)cc2)nc2oc(-c3cccc(F)c3)nc12 ... 73

Query :: # query: % Activation (Edg-1 receptor activation in percent of the activation by 10 μM S1P) of entry CCOc1nc(Cc2ccc(Cl)cc2)nc2oc(-c3cc(C)c(OC)c(C)c3)nc12
Result :: 66

Query :: Recorded % Activation (Edg-1 receptor activation in percent of the activation by 10 μM S1P) for CCCCOc1nc(Cc2ccc(Cl)cc2)nc2oc(-c3ccco3)nc12 , please?
Result :: 57

# credit: patent US8735387B2
